Listed below: pIC50 values for each entry.
# System: Neutrophil
# assay.explanation: Inhibition of immune complex-stimulated neutrophil oxidative metabolism in New Zealand white rabbit neutrophils assessed as ROS generation after 30 mins by lucigenin enhanced chemiluminescence assay
# Format: functional, cell-based
# condition.notes: Oryctolagus cuniculus, 0.5 h, read-out: IC50
# log scale: pIC50 equals minus log10 of the concentration in mol/L

As a guide, the following entries are already answered.
smiles.code: COC(=O)Oc1cccc(-c2cc3cc(OC(=O)OC)ccc3oc2=O)c1
test.system: Neutrophil
pIC50: 5.16
--
smiles.code: COC(=O)Oc1cc2cc(-c3ccc4c(c3)OCO4)c(=O)oc2cc1OC(=O)OC
test.system: Neutrophil
pIC50: 6.15
--
smiles.code: O=c1oc2cc(O)c(O)cc2cc1-c1ccc(O)c(O)c1
test.system: Neutrophil
pIC50: 5.28
--
smiles.code: COC(=O)Oc1ccc(-c2cc3cc(OC(=O)OC)c(OC(=O)OC)cc3oc2=O)cc1OC(=O)OC
test.system: Neutrophil
pIC50: 6.40
--
smiles.code: O=c1oc2ccc(O)cc2cc1-c1ccccc1O
test.system: Neutrophil
pIC50: 5.60
--
smiles.code: O=c1c(O)c(-c2ccc(O)c(O)c2)oc2cc(O)cc(O)c12
test.system: Neutrophil
pIC50: 5.33

## Input Endpoint output: pIC50 of O=c1oc2cc(O)c(O)cc2cc1-c1ccc2c(c1)OCO2 . Value?
## Output 6.15

## Input For COC(=O)Oc1ccc2oc(=O)c(-c3ccccc3OC(=O)OC)cc2c1 , what is its reported pIC50?
## Output 5.59

## Input Need pIC50, item O=c1oc2ccc(O)cc2cc1-c1ccc(O)c(O)c1
## Output 5.36

## Input Need pIC50 of O=c1oc2ccc(O)cc2cc1-c1ccc2c(c1)OCO2 , thanks.
## Output 5.25

## Input Which measured pIC50 value corresponds to COC(=O)Oc1ccc2oc(=O)c(-c3ccc4c(c3)OCO4)cc2c1 ?
## Output 5.27
